Source of measurements: patent US20230400471A1

Listed substances paired with reported % recovery by Rabbit Polyclonal Antibody
# System: rabbit anti-PIF polyclonal antibody
# test: PIF colorimetric ELISA using rabbit polyclonal antibody, epitope mapping with PIF peptides of various length
# Type: binding
# reported-conditions: spike concentration 200 ng/ml; representative value of three repeats
Value expressed in %; do not type the unit.

P8-15: PIF peptide, amino acid locations 8-15 (S A N K P S D D) (SANKPSDD) [Clone P8-15] = 0
P8-13: PIF peptide, amino acid locations 8-13 (S A N K P S) (SANKPS) [Clone P8-13] = 0

Consider now this further substance.
Challenge: Which % recovery by Rabbit Polyclonal Antibody is reported for this substance? P1-14: PIF peptide, amino acid locations 1-14 (M V R I K P G S A N K P S D) (MVRIKPGSANKPSD) [Clone P1-14]
Response given: 30.0
